Organism: Homo sapiens
Experiment: Selectivity ratio of IC50 for human CHK1 to IC50 for human CHK2
VALUE_TYPE: Ratio IC50
Answers are plain numbers.

Here's what some known entries look like.
> print(dat)
                                 smiles.str  value.type  result.value
1  COc1ccc(-c2cc3c([nH]2)C(=O)NCC/C3=C2/NC(N)=NC2=O)cc1  Ratio IC50            62
2  NC1=NC(=O)/C(=C2\CCNC(=O)c3[nH]c(-c4ccccc4)cc32)N1  Ratio IC50            66

Attention now turns to another entry.
Specify Ratio IC50 for Nc1nc(C2=C3C(=Nc4ccccc43)C(=O)NCC2)c(O)[nH]1 and stop. 29

The reported measurements were obtained from ChEMBL document CHEMBL1944635.
